test system: HEK-293T; test: Multiplex assay against HEK293T; assay type: toxicity, cell-based; conditions: human, 48 h, 1 µM, compound concentration 1 uM, replicate 2
recorded-metric: Population Normal (%)
Your answer should be a plain number; it is taken to be in %.

1) CCn1c(=O)c(-c2ccc(-c3cncs3)cc2Cl)cc2cnc(Nc3ccc(N4CCN(C)CC4)cc3)nc21 ... 96

-- ask Which Population Normal (%) is reported for this compound? CCOc1cc2ncc(C#N)c(Nc3ccc(OCc4ccccn4)c(Cl)c3)c2cc1NC(=O)/C=C/CN(C)C
-- reply 84

-- ask Which Population Normal (%) is reported for this compound? O=C(Cc1ccc(-c2ccc(OCCN3CCOCC3)cc2)cn1)NCc1ccccc1
-- reply 95

-- ask Which Population Normal (%) is reported for this compound? Cl.Oc1ccc2c3c1O[C@H]1c4[nH]c5c(c4C[C@@]4(O)[C@@H](C2)N(CC2CC2)CC[C@]314)C[C@@]1(O)[C@H]2Cc3ccc(O)c4c3[C@@]1(CCN2CC1CC1)[C@H]5O4
-- reply 96

-- ask Which Population Normal (%) is reported for this compound? CCCn1c(=O)c2[nH]c(-c3cnn(Cc4cccc(C(F)(F)F)c4)c3)nc2n(CC)c1=O
-- reply 96

-- ask Which Population Normal (%) is reported for this compound? CCCS(=O)(=O)c1nc(NC2CC2)cc(-c2ccc3c(ccn3C3CC(C)(C)NC(C)(C)C3)c2)n1
-- reply 94

-- ask Which Population Normal (%) is reported for this compound? Cc1cc(C)c(S(=O)(=O)N(Cc2ccc(-c3cccc(S(C)(=O)=O)c3)cc2)Cc2ccc(C(F)(F)F)o2)c(C)c1
-- reply 97

-- ask Which Population Normal (%) is reported for this compound? CCOC(=O)c1c(C)[nH]c2ccc3c(c12)CN1CCc2cc(OC)ccc2C1O3 (configuration not stated)
-- reply 95

-- ask Which Population Normal (%) is reported for this compound? O=C1N/C(=N/c2ccccc2F)S/C1=C\c1ccc(C(=O)O)cc1
-- reply 94

-- ask Which Population Normal (%) is reported for this compound? Cc1ccc(C(=O)Nc2cccc(C(F)(F)F)c2)cc1Nc1nc(-c2cccnc2)nc2c1cnn2C
-- reply 90

-- ask Which Population Normal (%) is reported for this compound? COc1cc(N2CCN(C)CC2)ccc1Nc1ncc2c(n1)N(C)c1ccccc1C(=O)N2C
-- reply 97

-- ask Which Population Normal (%) is reported for this compound? O=C(Nc1ccc(Cl)cc1)Nc1cccc(-c2cccc(N3CCCC3)n2)c1
-- reply 97

-- ask Which Population Normal (%) is reported for this compound? C=C1/C(=C\C=C2/CCC[C@]3(C)[C@@H]([C@H](C)/C=C/[C@H](C)C(C)C)CC[C@@H]23)C[C@@H](O)C[C@@H]1O
-- reply 97

-- ask Which Population Normal (%) is reported for this compound? O=C(Nc1ccc(-n2nc(-c3cccnc3)cc2C(F)(F)F)cn1)c1ccc(-c2ccccc2)c(F)c1
-- reply 97
